- experimental system: ΔF508-CFTR (Homo sapiens, UniProt P13569, DEL508-508)
- Sequence (P13569 with tags, fused parts or gaps DEL508-508): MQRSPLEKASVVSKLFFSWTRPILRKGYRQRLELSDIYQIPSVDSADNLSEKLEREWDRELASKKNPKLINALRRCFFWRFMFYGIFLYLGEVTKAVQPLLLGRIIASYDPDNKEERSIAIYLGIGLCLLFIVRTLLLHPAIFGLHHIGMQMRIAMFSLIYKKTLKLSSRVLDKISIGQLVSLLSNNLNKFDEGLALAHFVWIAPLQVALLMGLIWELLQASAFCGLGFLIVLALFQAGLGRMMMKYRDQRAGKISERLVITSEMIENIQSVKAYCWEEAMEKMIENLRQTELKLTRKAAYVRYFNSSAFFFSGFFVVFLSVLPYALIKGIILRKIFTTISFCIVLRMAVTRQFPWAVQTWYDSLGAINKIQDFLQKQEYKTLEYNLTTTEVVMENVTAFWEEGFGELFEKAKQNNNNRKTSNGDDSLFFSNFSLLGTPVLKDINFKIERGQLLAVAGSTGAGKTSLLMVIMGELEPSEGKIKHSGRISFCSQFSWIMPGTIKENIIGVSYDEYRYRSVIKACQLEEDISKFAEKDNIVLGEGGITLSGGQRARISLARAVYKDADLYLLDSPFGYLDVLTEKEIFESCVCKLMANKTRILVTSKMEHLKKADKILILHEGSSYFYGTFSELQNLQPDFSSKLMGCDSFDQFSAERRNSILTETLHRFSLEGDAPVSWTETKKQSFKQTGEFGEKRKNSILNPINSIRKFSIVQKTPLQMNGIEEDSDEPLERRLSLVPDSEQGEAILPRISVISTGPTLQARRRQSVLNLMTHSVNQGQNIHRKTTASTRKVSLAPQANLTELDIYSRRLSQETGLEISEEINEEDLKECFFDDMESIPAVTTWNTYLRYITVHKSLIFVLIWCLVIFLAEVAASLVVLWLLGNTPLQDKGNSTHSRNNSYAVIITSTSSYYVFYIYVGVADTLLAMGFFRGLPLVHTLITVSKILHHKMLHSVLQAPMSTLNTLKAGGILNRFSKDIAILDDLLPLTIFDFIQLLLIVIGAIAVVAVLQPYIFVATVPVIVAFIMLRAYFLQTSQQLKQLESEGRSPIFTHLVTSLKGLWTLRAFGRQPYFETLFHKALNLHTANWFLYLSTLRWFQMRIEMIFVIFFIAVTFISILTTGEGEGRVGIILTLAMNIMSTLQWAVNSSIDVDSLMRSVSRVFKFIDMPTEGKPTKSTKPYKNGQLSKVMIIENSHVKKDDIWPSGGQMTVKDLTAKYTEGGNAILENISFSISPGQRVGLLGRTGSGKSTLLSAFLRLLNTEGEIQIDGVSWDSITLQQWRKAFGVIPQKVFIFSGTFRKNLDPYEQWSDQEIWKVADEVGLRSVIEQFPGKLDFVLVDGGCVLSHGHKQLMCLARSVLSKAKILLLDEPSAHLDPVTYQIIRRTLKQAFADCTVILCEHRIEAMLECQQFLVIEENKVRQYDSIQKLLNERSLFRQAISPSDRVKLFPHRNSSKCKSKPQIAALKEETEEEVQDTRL
- procedure text: Membrane potential optical assay (FRET/VIPR), identification of correction compounds
pEC50: −log10 of the molar value.
test readout: pEC50

molecule: COc1ccc(S(=O)(=O)N2CCN(C(C)c3nc(N4CCCC(CO)C4)c4ccccc4n3)CC2)cc1 (stereo not shown) [compound 344]
test readout: pEC50
test value: 4.60 to 5.00

Data point: COc1ccc(S(=O)(=O)N2CCN(C(C)c3nc(N4CCC(Cc5ccccc5)CC4)c4ccccc4n3)CC2)cc1 (stereo not shown) [compound 389] ; pEC50 = > 5.00

Data point: Cc1ccc(S(=O)(=O)N2CCN(C(C)c3nc4ccccc4c(=O)n3C)CC2)cc1 (stereo not shown) [compound 11] ; pEC50 = 4.60 to 5.00

Data point: CC(NC[C@@H]1CCCCN1S(=O)(=O)c1ccc(Cl)cc1)c1nc2ccccc2c(=O)n1C (stereo partly shown) [compound 214] ; pEC50 = 4.22 to 4.60

Data point: COc1ccc(S(=O)(=O)N2CCN(C(C)c3nc(N4CC[C@H](O)C4)c4ccccc4n3)CC2)cc1 (stereo partly shown) [compound 318] ; pEC50 = 4.22 to 4.60

Data point: CC(c1nc2ccc(C#N)cc2c(=O)n1C)N1CCN(S(=O)(=O)c2ccccc2)CC1 (stereo not shown) [compound 123] ; pEC50 = 4.60 to 5.00

Data point: COc1ccc(S(=O)(=O)N2CCN(C(C)c3nc(OC4CCCC4)c4ccccc4n3)CC2)cc1 (stereo not shown) [compound 191] ; pEC50 = > 5.00

Data point: CC(c1nc2cccc(Cl)c2c(=O)n1C)N1CCN(S(=O)(=O)c2ccccc2)CC1 (stereo not shown) [compound 103] ; pEC50 = 4.60 to 5.00
